Recorded values, source the supplement of paper PMC12350171.

system: Vibrio cholerae; experiment: growth AUC normalised to DMSO control (fraction of control); higher = less growth inhibition, active = hit call of the paper; conditions: 20 µM
Counter-ions that a name gives are not always drawn.
Recorded growth AUC normalised to DMSO control values for a group of molecules are listed next.
The answer should be a number; do not append a unit.

Example entries begin here.
{"columns": ["Molecule", "Reading"],
 "data": [
  ["Clc1ccc(COC(Cn2ccnc2)c2ccc(Cl)cc2Cl)cc1 (stereo not given) [Econazole nitrate]", 0.962],
  ["O=C(O)c1cc(=O)c2c(OCC(O)COc3cccc4oc(C(=O)O)cc(=O)c34)cccc2o1 [Cromolyn disodium salt]", 1],
  ["CC(C(=O)O)c1ccc(C(=O)c2ccccc2)s1 (stereo not given)", 0.978],
  ["Cc1cn[nH]c1 [Fomepizole]", 0.977],
  ["Cc1ncc([N+](=O)[O-])n1CC(O)CCl (stereo not given)", 1.01]
]}

// returns reported growth AUC normalised to DMSO control for input O=C(O[C@@H]1C[C@@H]2C[C@H]3C[C@H](C1)N2CC3=O)c1c[nH]c2ccccc12 [Dolasetron mesilate]
0.999

GET /values?readout=growth AUC normalised to DMSO control&item= Cc1ccnc(NS(=O)(=O)c2ccc(N)cc2)n1
0.977

Tell me the measured growth AUC normalised to DMSO control of CNC[C@H](O)[C@@H](O)[C@H](O)[C@H](O)CO , please.
1.04

Looking for the measured growth AUC normalised to DMSO control of CC(COc1ccccc1)N(CCCl)Cc1ccccc1 (stereo not given) [Phenoxybenzamine hydrochloride] , can you help?
1.01

Look at this molecule and give its reported growth AUC normalised to DMSO control. COc1cc(C)nc(-n2nc(C)cc2OC)n1 [Epirizole]
0.981

Which growth AUC normalised to DMSO control reading was recorded for the molecule CNCCc1ccccn1 [Betahistine mesylate] ?
0.985

Which growth AUC normalised to DMSO control reading was recorded for the molecule N/C(=N\C(=O)c1nc(Cl)c(N)nc1N)NCc1ccccc1 [Benzamil hydrochloride] ?
0.99

// query growth AUC normalised to DMSO control value for entry C#C[C@]1(O)CC[C@H]2[C@@H]3CCC4=CCCC[C@@H]4[C@H]3CC[C@@]21C
1.01

Name the recorded growth AUC normalised to DMSO control for CC(C)n1c(/C=C/C(O)CC(O)CC(=O)O)c(-c2ccc(F)cc2)c2ccccc21 (stereo not given) [Fluvastatin sodium salt] .
0.997

Endpoint output: growth AUC normalised to DMSO control of CCN(CC)Cc1cc(Nc2ccnc3cc(Cl)ccc23)ccc1O [Amodiaquine dihydrochloride dihydrate] . Value?
1
